details: in water, 308.15 K
parameter: solubility (mole fraction)
Answers are plain numbers.

query: Quick one: solubility (mole fraction) of CC(C)(Oc1ccc(C2CC2(Cl)Cl)cc1)C(=O)O (stereo unspecified) ?
result: 1.77e-06

---

conditions: in ethylene glycol, 288.15 K
parameter: solubility (mole fraction)
Numbers only.

query: Quick one: solubility (mole fraction) of CC(C)(Oc1ccc(C2CC2(Cl)Cl)cc1)C(=O)O (stereo unspecified) ?
result: 0.044

---

details: in DMF, 298.15 K
parameter: solubility (mole fraction)
Give bare numbers.

query: Quick one: solubility (mole fraction) of CC(C)(Oc1ccc(C2CC2(Cl)Cl)cc1)C(=O)O (stereo unspecified) ?
result: 0.296
